- test method notes: Mouse pharmacokinetic assay
- Assay type: in vivo
- condition parameters: female, mouse, plasma; ICR mice, oral administration 10 mg/kg
attribute measured: Cmax (ng/mL)
Express your answer in ng/mL, writing the number without its unit.

Identify the reported Cmax for the following entry. COc1cccc(-c2c(C)n(Cc3c(F)cccc3C(F)(F)F)c(=O)n(C[C@H](NCCCC(=O)O)c3ccccc3F)c2=O)c1F
2000

====

- test method notes: Rat pharmacokinetic assay
- Type: in vivo
- condition parameters: female, rat, plasma; SD rats, oral gavage 50 mg/kg
attribute measured: AUC(0-inf) (ng·h/mL)
Express your answer in ng·h/mL, writing the number without its unit.

Identify the reported AUC(0-inf) for the following entry. COc1cccc(-c2c(C)n(Cc3c(F)cccc3C(F)(F)F)c(=O)n(C[C@H](NCCCC(=O)O)c3ccccc3F)c2=O)c1F
16400

Identify the reported AUC(0-inf) for the following entry. COc1cccc(-c2c(C)n(Cc3c(F)cccc3C(F)(F)F)c(=O)n(C[C@H](NCCCC(=O)[O-])c3ccccc3)c2=O)c1F.[Na+] [Elagolix Sodium, reference compound]
4870

====

- test method notes: Mouse pharmacokinetic assay
- Type: in vivo
- condition parameters: female, mouse, plasma; ICR mice, oral administration 10 mg/kg vs intravenous 10 mg/kg; read-out: F (absolute bioavailability)
attribute measured: bioavailability

Identify the reported bioavailability for the following entry. COc1cccc(-c2c(C)n(Cc3c(F)cccc3C(F)(F)F)c(=O)n(C[C@H](NCCCC(=O)O)c3ccccc3F)c2=O)c1F
38.9%

====

For each of the compounds below, state its Cmax.
- test method notes: Rat pharmacokinetic assay
- Type: in vivo
- condition parameters: female, rat, plasma; SD rats, oral gavage 50 mg/kg
Answer with the value and then the unit.

Identify the reported Cmax for the following entry. COc1cccc(-c2c(C)n(Cc3c(F)cccc3C(F)(F)F)c(=O)n(C[C@H](NCCCC(=O)[O-])c3ccccc3)c2=O)c1F.[Na+] [Elagolix Sodium, reference compound]
4660 ng/mL

Identify the reported Cmax for the following entry. COc1cccc(-c2c(C)n(Cc3c(F)cccc3C(F)(F)F)c(=O)n(C[C@H](NCCCC(=O)O)c3ccccc3F)c2=O)c1F
17000 ng/mL

====

For each of the compounds below, state its Vd.
- test method notes: Rat pharmacokinetic assay
- Assay type: in vivo
- condition parameters: female, rat, plasma; SD rats, intravenous injection 25 mg/kg; read-out: Vz (apparent volume of distribution)
Express your answer in L/kg, writing the number without its unit.

Identify the reported Vd for the following entry. COc1cccc(-c2c(C)n(Cc3c(F)cccc3C(F)(F)F)c(=O)n(C[C@H](NCCCC(=O)O)c3ccccc3F)c2=O)c1F
1.82

Identify the reported Vd for the following entry. COc1cccc(-c2c(C)n(Cc3c(F)cccc3C(F)(F)F)c(=O)n(C[C@H](NCCCC(=O)[O-])c3ccccc3)c2=O)c1F.[Na+] [Elagolix Sodium, reference compound]
8.46

====

For each of the molecules below, state its Tmax.
- test method notes: Rat pharmacokinetic assay
- Type: in vivo
- condition parameters: female, rat, plasma; SD rats, oral gavage 50 mg/kg
Express your answer in min, writing the number without its unit.

Identify the reported Tmax for the following entry. COc1cccc(-c2c(C)n(Cc3c(F)cccc3C(F)(F)F)c(=O)n(C[C@H](NCCCC(=O)O)c3ccccc3F)c2=O)c1F
25.2

Identify the reported Tmax for the following entry. COc1cccc(-c2c(C)n(Cc3c(F)cccc3C(F)(F)F)c(=O)n(C[C@H](NCCCC(=O)[O-])c3ccccc3)c2=O)c1F.[Na+] [Elagolix Sodium, reference compound]
25.2
